Hello, the source for this data is patent US20220081446A1, in case you need it.

Test system: HepG2 cells
Test Context: read-out: CC50 (proliferation inhibition), 72 hours, CellTiter-Glo
Quantity Measured: CC50

| Mol Smiles | Result |
| --- | --- |
| C[C@H]1Cn2nnc(C(=O)N[C@H](C)C(F)(F)F)c2CN1C(=O)Nc1ccc(F)c(F)c1 | > 100 µM |
